test: Single-dose (Day 1) pharmacokinetics of Compound tablets, first-time-in-human study; settings: human, plasma, po, 4 mg, AUC (0-24), single dose Day 1, oral tablets, fasting, 4.0 mg, mean (CV %) and range

molecule: CC(=O)Nc1cccc(-n2c(=O)n(C3CC3)c(=O)c3c(Nc4ccc(I)cc4F)n(C)c(=O)c(C)c32)c1 [Compound]
AUC(0-t): 167 to 275 ng·h/mL

###

test: Single-dose (Day 1) pharmacokinetics of Compound tablets, first-time-in-human study; conditions: human, plasma, po, 6 mg, Cmax, Day 1, oral tablets, fasting, 6.0 mg loading dose, mean (CV %) and range

inputSmiles: CC(=O)Nc1cccc(-n2c(=O)n(C3CC3)c(=O)c3c(Nc4ccc(I)cc4F)n(C)c(=O)c(C)c32)c1
Cmax: 6.91 to 37.2 ng/mL

These measurements were taken from patent US9155706B2.
